experiment: PK of compound of Formula (Ia) after single subcutaneous dose of solution formulations in beagle dogs
Assay type: in vivo
experimental.conditions: male, beagle, dog, plasma, sc, 6 mg/kg, 8.00 h; individual dogs; SC 6 mg/kg; solution V, 300 mg/mL
reported.property: concentration at 8 h (nM)

INSERT INTO results (smiles_text, measurement) VALUES
  ('CC(C)(C#Cc1ccc(-c2ccc(Cl)c3c(NS(C)(=O)=O)nn(CC(F)(F)F)c23)c([C@H](Cc2cc(F)cc(F)c2)NC(=O)Cn2nc(C(F)(F)F)c3c2C(F)(F)[C@@H]2C[C@H]32)n1)S(C)(=O)=O', 8.26);

###

experiment: PK of compound of Formula (Ia) after single subcutaneous dose of solution formulations in Wistar Han rats
Type: in vivo
experimental.conditions: male, Wistar Han, rat, plasma, sc, 50 mg/kg, Wistar Han rats, SC 50 mg/kg, 400 mg/mL solution Y (water, PEG 300), 3360 h, Mean n = 4
reported.property: concentration at 3360 h (nM)

INSERT INTO assay_data (smiles_text, measurement) VALUES
  ('CC(C)(C#Cc1ccc(-c2ccc(Cl)c3c(NS(C)(=O)=O)nn(CC(F)(F)F)c23)c([C@H](Cc2cc(F)cc(F)c2)NC(=O)Cn2nc(C(F)(F)F)c3c2C(F)(F)[C@@H]2C[C@H]32)n1)S(C)(=O)=O', 95.2);

###

experiment: PK of compound of Formula (Ia) after single subcutaneous dose of solution formulations in Wistar Han rats
Assay type: in vivo
experimental.conditions: male, Wistar Han, rat, plasma, sc, 50 mg/kg, 8.00 h; mean, n = 5 rats; SC 50 mg/kg; solution T, 400 mg/mL
reported.property: concentration at 8 h (nM)

INSERT INTO results (smiles_text, reported_property, measurement) VALUES
  ('CC(C)(C#Cc1ccc(-c2ccc(Cl)c3c(NS(C)(=O)=O)nn(CC(F)(F)F)c23)c([C@H](Cc2cc(F)cc(F)c2)NC(=O)Cn2nc(C(F)(F)F)c3c2C(F)(F)[C@@H]2C[C@H]32)n1)S(C)(=O)=O', 'concentration at 8 h', 211);

###

experiment: PK of compound of Formula (Ia) after single subcutaneous dose of solution formulations in beagle dogs
Type: in vivo
experimental.conditions: male, beagle, dog, plasma, sc, 6 mg/kg, 1680 h; individual dogs; SC 6 mg/kg; solution V, 300 mg/mL
reported.property: concentration at 1680 h (nM)

INSERT INTO assay_data (compound, measurement) VALUES
  ('CC(C)(C#Cc1ccc(-c2ccc(Cl)c3c(NS(C)(=O)=O)nn(CC(F)(F)F)c23)c([C@H](Cc2cc(F)cc(F)c2)NC(=O)Cn2nc(C(F)(F)F)c3c2C(F)(F)[C@@H]2C[C@H]32)n1)S(C)(=O)=O [compound of Formula (Ia)]', 13.7);

###

experiment: PK of compound of Formula (Ia) after single subcutaneous dose of solution formulations in Wistar Han rats
Format: in vivo
experimental.conditions: male, Wistar Han, rat, plasma, sc, 50 mg/kg, Wistar Han rats, SC 50 mg/kg, 400 mg/mL solution AA (6.25% poloxamer 188), 1008 h, Mean n = 4
reported.property: concentration at 1008 h (µM)

INSERT INTO measurements (smiles_text, measurement) VALUES
  ('CC(C)(C#Cc1ccc(-c2ccc(Cl)c3c(NS(C)(=O)=O)nn(CC(F)(F)F)c23)c([C@H](Cc2cc(F)cc(F)c2)NC(=O)Cn2nc(C(F)(F)F)c3c2C(F)(F)[C@@H]2C[C@H]32)n1)S(C)(=O)=O', 0.103);

###

experiment: PK of compound of Formula (Ia) after single intramuscular dose of solution formulations in Wistar Han rats
Assay type: in vivo
experimental.conditions: male, Wistar Han, rat, plasma, intramuscular, 100 mg/kg, Solution K (~500 mg/mL, ethanol); IM 100 mg/kg; Wistar Han rats; mean, n = 4; 24.0 h; read-out: Plasma concentration, Mean
Protocol: Formulations containing the compound of Formula (Ia), or a pharmaceutically acceptable salt thereof, were prepared as solutions and optionally administered subcutaneously or intramuscularly to rats, rabbits, and/or dogs. A solution of about 400 mg/ml of the compound of Formula (Ia) having 21.13 w/w % water, 45.25 w/w % PEG 300, and 33.61 w/w % of a sodium salt of a compound of Formula (Ia) was prepared. […]
reported.property: concentration at 24 h (µM)

INSERT INTO results (compound, reported_property, measurement) VALUES
  ('CC(C)(C#Cc1ccc(-c2ccc(Cl)c3c(NS(C)(=O)=O)nn(CC(F)(F)F)c23)c([C@H](Cc2cc(F)cc(F)c2)NC(=O)Cn2nc(C(F)(F)F)c3c2C(F)(F)[C@@H]2C[C@H]32)n1)S(C)(=O)=O [compound of Formula (Ia)]', 'concentration at 24 h', 0.361);

###

experiment: PK of compound of Formula (Ia) after single subcutaneous dose of solution formulations in Wistar Han rats
Format: in vivo
experimental.conditions: male, Wistar Han, rat, plasma, sc, 50 mg/kg, male Wistar Han rats, single SC 50 mg/kg, 500 mg/mL solution X (5.00% ethanol, 1.91% poloxamer 188), mean ± SD, n = 3; read-out: AUC0-24 h
reported.property: AUC(0-t) (µM·h)

INSERT INTO assay_data (smiles_text, measurement) VALUES
  ('CC(C)(C#Cc1ccc(-c2ccc(Cl)c3c(NS(C)(=O)=O)nn(CC(F)(F)F)c23)c([C@H](Cc2cc(F)cc(F)c2)NC(=O)Cn2nc(C(F)(F)F)c3c2C(F)(F)[C@@H]2C[C@H]32)n1)S(C)(=O)=O', 2.82);

###

experiment: PK of compound of Formula (Ia) after single subcutaneous dose of solution formulations in Wistar Han rats
Assay type: in vivo
experimental.conditions: male, Wistar Han, rat, plasma, sc, 50 mg/kg, male Wistar Han rats, single SC 50 mg/kg, 500 mg/mL solution X (5.00% ethanol, 1.91% poloxamer 188), mean ± SD, n = 3; read-out: AUC0-168 h
reported.property: AUC(0-t) (µM·h)

INSERT INTO results (smiles_text, measurement) VALUES
  ('CC(C)(C#Cc1ccc(-c2ccc(Cl)c3c(NS(C)(=O)=O)nn(CC(F)(F)F)c23)c([C@H](Cc2cc(F)cc(F)c2)NC(=O)Cn2nc(C(F)(F)F)c3c2C(F)(F)[C@@H]2C[C@H]32)n1)S(C)(=O)=O', 30.1);

###

experiment: PK of compound of Formula (Ia) after single subcutaneous dose of solution formulations in beagle dogs
Type: in vivo
experimental.conditions: male, beagle, dog, plasma, sc, 6 mg/kg, 1344 h; mean, n = 3 dogs; SC 6 mg/kg; solution V, 300 mg/mL
reported.property: concentration at 1344 h (nM)

INSERT INTO measurements (smiles_text, reported_property, result_unit, measurement) VALUES
  ('CC(C)(C#Cc1ccc(-c2ccc(Cl)c3c(NS(C)(=O)=O)nn(CC(F)(F)F)c23)c([C@H](Cc2cc(F)cc(F)c2)NC(=O)Cn2nc(C(F)(F)F)c3c2C(F)(F)[C@@H]2C[C@H]32)n1)S(C)(=O)=O', 'concentration at 1344 h', 'nM', 23.8);

###

experiment: PK of compound of Formula (Ia) after single subcutaneous dose of solution formulations in beagle dogs
Format: in vivo
experimental.conditions: male, beagle, dog, plasma, sc, 6 mg/kg, mean ± SD, n = 3 dogs; SC 6 mg/kg; solution V, 300 mg/mL
reported.property: Cmax

INSERT INTO assay_data (smiles_text, measurement) VALUES
  ('CC(C)(C#Cc1ccc(-c2ccc(Cl)c3c(NS(C)(=O)=O)nn(CC(F)(F)F)c23)c([C@H](Cc2cc(F)cc(F)c2)NC(=O)Cn2nc(C(F)(F)F)c3c2C(F)(F)[C@@H]2C[C@H]32)n1)S(C)(=O)=O', '155 nM');

###

experiment: PK of compound of Formula (Ia) after single subcutaneous dose of solution formulations in beagle dogs
Assay type: in vivo
experimental.conditions: male, beagle, dog, plasma, sc, 12 mg/kg, beagle dogs, SC 12 mg/kg, 400 mg/mL solution Y (water, PEG 300), 1334 h, Mean n = 3
Description: Formulations containing the compound of Formula (Ia), or a pharmaceutically acceptable salt thereof, were prepared as solutions and optionally administered subcutaneously or intramuscularly to rats, rabbits, and/or dogs. A solution of about 400 mg/mL of the compound of Formula (Ia) having 17.00 w/w % water, 36.40 w/w % PEG 300, 35.20 w/w % of a sodium salt of a compound of Formula (Ia), 5.00 w/w % ethanol, and 6.40 w/w % poloxamer 188 was prepared. […]
reported.property: concentration at 1334 h (nM)

INSERT INTO results (compound, measurement) VALUES
  ('CC(C)(C#Cc1ccc(-c2ccc(Cl)c3c(NS(C)(=O)=O)nn(CC(F)(F)F)c23)c([C@H](Cc2cc(F)cc(F)c2)NC(=O)Cn2nc(C(F)(F)F)c3c2C(F)(F)[C@@H]2C[C@H]32)n1)S(C)(=O)=O [compound of Formula (Ia)]', 58.2);
